# System: KM12 colon
# Experiment notes: NCI-60 one-dose screen, 48 h
# Measurement conditions: 10 µM unless noted
Compounds without any hit were thinned out: in the full panel of roughly 83,000, 20% have a hit. The source made the active and inactive calls. The calls were made as follows: active = growth percent below 10; inactive = the rest.
Labels: Yes for active, No for inactive

>>> class_name("C=CC(=O)Nc1cc2c(Nc3ccc(F)c(Cl)c3)ncnc2cc1OCCCN1CCOCC1")
"No"
>>> class_name("Nc1nc(Nc2ccccc2)c(C=Nc2ccccc2)c(=O)[nH]1")
"No"
>>> class_name("CCCCn1c(C)nc2cc(Nc3nc(N4CCCCC4)nc4nc[nH]c34)ccc21")
"No"
>>> class_name("CCCCCC(=O)OCc1ccc(Cl)c(Cl)c1")
"No"
>>> class_name("CC[C@@H]1C(=O)N(C)c2cnc(Nc3ccc(C(=O)NC4CCC(N5CCN(CC6CC6)CC5)CC4)cc3OC)nc2N1C(C)C (stereo not given in full)")
"Yes"
>>> class_name("Cc1ccccc1Nc1nc2nonc2nc1Nc1cccc(C)c1C")
"No"
>>> class_name("O=C(Nc1cccc(Cl)c1)Nc1ncc(CCNc2ncnc3ccsc23)s1")
"No"
>>> class_name("C[C@@H]1COCCN1c1cc(C2([S@](C)(=N)=O)CC2)nc(-c2ccnc3[nH]ccc23)n1")
"No"
>>> class_name("CCc1nc2cc(F)c(/C=C/C(=O)NO)cc2c(=O)n1CCc1ccccc1")
"No"
>>> class_name("CCc1nc(C(N)=O)c(Nc2ccc(N3CCC(N4CCN(C)CC4)CC3)c(OC)c2)nc1NC1CCOCC1")
"No"
>>> class_name("CC[C@H](Nc1ncnc2nc[nH]c12)c1nc2cccc(F)c2c(=O)n1-c1ccccc1")
"No"
>>> class_name("Cc1cc(N2CCOCC2)nc(N(CCNc2ccnc3cc(Cl)ccc23)Cc2cccs2)n1")
"No"
>>> class_name("COc1cc(F)c(F)c(Nc2ccc(I)cc2F)c1NS(=O)(=O)C1(C[C@H](O)CO)CC1")
"No"
>>> class_name("Nc1nc(N)c2cc(CNc3ccc(C(=O)NC(CC(=O)O)C(=O)O)cc3)ccc2n1 (stereo not given)")
"No"
>>> class_name("CCN(CCN(C)C)C(=O)CNCc1cc(C(N)=O)ccn1")
"No"
>>> class_name("NC(=O)c1c(OCc2c(F)cc(Br)cc2F)nsc1NC(=O)NCCCCN1CCCC1")
"Yes"
>>> class_name("CCc1nc2ccc(Cc3ccc(C(=O)NO)cc3)cc2c(=O)n1CCc1ccccc1")
"Yes"
>>> class_name("Cc1ccc(NC(=O)c2ccc(CN3CCN(C)CC3)cc2)cc1Nc1nc(-c2cccnc2)cs1")
"No"
>>> class_name("Cc1cc(O)cc(-c2c(-c3ccnc(-c4cccnc4)c3)cnn2C)c1")
"No"
>>> class_name("Cc1nn(-c2nc3ccccc3[nH]2)c2c1C(c1ccc(OCc3ccc(F)cc3)cc1)CC(=O)N2 (stereo not given)")
"No"

---

# Test system: LOX IMVI melanoma
# Experiment notes: NCI-60 one-dose screen, 48 h
# Measurement conditions: 10 µM unless noted
Compounds without any hit were thinned out: in the full panel of roughly 83,000, 20% have a hit. Active and inactive are the calls of the source. How the source made its calls: active means growth percent below 10; inactive means the rest.
Outcome codes: active, inactive

>>> class_name("N#Cc1c(NC(=O)c2cccs2)[n+]([O-])c2ccc(F)cc2[n+]1[O-]")
"inactive"
>>> class_name("CC1(O)CCC2CC3OC3(C)CCC3OC3(C)C(O)CC1C2(C)C (stereo not given)")
"inactive"
>>> class_name("CC1=CC2c3oc(-c4ccccc4)c(C(=O)c4ccccc4)c3CNC2C=C1 (stereo not given)")
"inactive"
>>> class_name("O=C(COc1cccc(/C=C2\\Cc3ccc(Cl)cc3C2=O)c1)Nc1nccs1")
"inactive"
>>> class_name("O=C1OCC2=C1C(c1cccc(F)c1)c1cc3c(cc1N2CCO)OCCO3 (stereo not given)")
"inactive"
>>> class_name("CCN1CCN(c2cc(C)nc(N(CCCNc3ccnc4cc(Cl)ccc34)Cc3cccs3)n2)CC1")
"active"
>>> class_name("Cn1c(=O)c(F)c(Nc2ccc(I)cc2F)c2c(=O)n(C[C@@H](O)CO)cnc21")
"inactive"
>>> class_name("O=C1CC(c2cccc(F)c2)c2c(n[nH]c2-c2ccc(Cl)cc2)N1 (stereo not given)")
"inactive"
>>> class_name("C=CC(=O)N1CCC[C@@H](n2nc(-c3ccc(Oc4ccccc4)cc3)c3c(N)ncnc32)C1")
"inactive"
>>> class_name("O=C(NC1CCNCC1)c1[nH]ncc1NC(=O)c1c(Cl)cccc1Cl")
"active"

// data source = PubChem BioAssay (NCI)
